Target of assay: ETS1 (Homo sapiens, UniProt P14921 1-441)
Sequence: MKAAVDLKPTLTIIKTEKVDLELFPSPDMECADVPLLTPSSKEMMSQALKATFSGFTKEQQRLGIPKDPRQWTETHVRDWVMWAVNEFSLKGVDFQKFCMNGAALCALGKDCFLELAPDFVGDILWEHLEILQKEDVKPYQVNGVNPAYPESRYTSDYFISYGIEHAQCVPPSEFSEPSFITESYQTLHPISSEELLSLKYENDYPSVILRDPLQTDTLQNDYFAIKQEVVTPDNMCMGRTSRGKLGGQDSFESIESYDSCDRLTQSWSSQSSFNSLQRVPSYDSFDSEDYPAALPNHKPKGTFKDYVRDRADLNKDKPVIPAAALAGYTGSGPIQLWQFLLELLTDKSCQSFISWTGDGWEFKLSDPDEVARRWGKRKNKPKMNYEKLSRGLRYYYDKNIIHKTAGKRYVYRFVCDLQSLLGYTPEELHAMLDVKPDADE
Assay name: custom PBM; custom protein-binding microarray; buffer, salt, pH and temperature not stated; high values mean tight binding
Setup conditions: dsDNA, one strand shown
Over roughly 1,300 sequences, “log fluorescence intensity” has its median near 8.3; the highest 2% begin near 12. The sample as a whole holds a higher share of the highest values than the screen did.
Measured metric: binding signal

Consider the worked cases shown below.
GCTGCTGCGGTGTATACCCCACCGGATGTGACCCCGGTCTTGATTCGCTTGACGCTGCTG | 10.1 log fluorescence intensity
GATTAATTTCTGCCCTTATTCGAACGTGCCATAACAGTCTTGATTCGCTTGACGCTGCTG | 8.42 log fluorescence intensity
GCTGCTGCGGTGCATACCCCACCGGACGTGACCCCGGTCTTGATTCGCTTGACGCTGCTG | 8.55 log fluorescence intensity

Sample GCTGCTGCGGTGCATACACCACCGGATGTGACCCCGGTCTTGATTCGCTTGACGCTGCTG ; binding signal observed: 10.2 log fluorescence intensity

Sample CGGAAGTGTCGTAACCGTCGGATATCCGGTTCTTCTGTCTTGATTCGCTTGACGCTGCTG ; binding signal observed: 11.9 log fluorescence intensity

Sample GGAAAAAGGCCCAGCGTAACACCGGAAGTGGGCTTAGTCTTGATTCGCTTGACGCTGCTG ; binding signal observed: 11.9 log fluorescence intensity

Sample CAGCAAAGGACTTCTTCCCTGAAGCAATTGATAACCGTCTTGATTCGCTTGACGCTGCTG ; binding signal observed: 8.31 log fluorescence intensity

Sample GGGAAGTGTCGTAAACGTCGGATATCCGGTTCTTCTGTCTTGATTCGCTTGACGCTGCTG ; binding signal observed: 11.9 log fluorescence intensity

Sample GCTTCTGCGGTGCATACCCCACCGGATGTGACCCCGGTCTTGATTCGCTTGACGCTGCTG ; binding signal observed: 10.3 log fluorescence intensity

Sample GGAAAAAGGCCCAGGGTAACACCGGAAATGGGCTTAGTCTTGATTCGCTTGACGCTGCTG ; binding signal observed: 11.5 log fluorescence intensity

Sample TAAAGGGAAGACGGTTGTAGTAGTTCCGGGTATTAAGTCTTGATTCGCTTGACGCTGCTG ; binding signal observed: 8.81 log fluorescence intensity

Sample GATTAATTTCTGCCCTTTTTCGCACGTGCCATAACAGTCTTGATTCGCTTGACGCTGCTG ; binding signal observed: 8.42 log fluorescence intensity

Sample GGAAAAAGGGCCAGGGTAACACCGGAAGTGGGCTTAGTCTTGATTCGCTTGACGCTGCTG ; binding signal observed: 12 log fluorescence intensity

Sample GGAAAAAGGCCGAGGGTAACACCGGAAGTGGGCTTAGTCTTGATTCGCTTGACGCTGCTG ; binding signal observed: 12 log fluorescence intensity

Sample TAAAGGGAAGACTGTTGTGGTAGTTCCGGGTATTAAGTCTTGATTCGCTTGACGCTGCTG ; binding signal observed: 8.36 log fluorescence intensity
